system: Influenza A virus; test: microbe, parasite or virus in culture; settings: MDCK, 72 h
// boundary case: EC50 equal to 7 µM maps to NO; strictly smaller maps to YES

Does Cc1cccc2c1OP(=O)(OC[C@H]1O[C@@H](n3ccnc(C(N)=O)c3=O)[C@H](O)[C@@H]1O)OC2 (stereo partly drawn) have EC50 strictly under 7 µM?
NO

Does `NC(=O)c1nc(Br)cnc1O` have EC50 strictly under 7 µM?
NO

Does CCCCCCCCCCCCCCC(=O)Oc1ccc(COP(=O)(OCc2ccc(OC(=O)CCCC)cc2)OP(=O)(O)OP(=O)(O)OC[C@H]2O[C@@H](n3ccnc(C(N)=O)c3=O)[C@H](O)[C@@H]2O)cc1.CCN(CC)CC.CCN(CC)CC (stereo partly drawn) have EC50 strictly under 7 µM?
YES

Does `NC(=O)c1nccn([C@@H]2O[C@H](CO)[C@@H](O)[C@H]2O)c1=O` have EC50 strictly under 7 µM?
NO

Does `CCCCCCCCCC(=O)Oc1ccc(COP(=O)(OCc2ccc(OC(=O)CCCCCCCCC)cc2)OP(=O)(O)OC[C@H]2O[C@@H](n3ccnc(C(N)=O)c3=O)[C@H](O)[C@@H]2O)cc1.CCN(CC)CC` have EC50 strictly under 7 µM?
YES

Does `NC(=O)c1nc(Br)cn([C@@H]2O[C@H](CO)[C@@H](O)[C@H]2O)c1=O` have EC50 strictly under 7 µM?
NO

Does CCCCCCCCCCCCCCC(=O)Oc1ccc(COP(=O)(OCc2ccc(OC(=O)CCCC)cc2)OP(=O)(O)OC[C@H]2O[C@@H](n3ccnc(C(N)=O)c3=O)[C@H](O)[C@@H]2O)cc1.CCN(CC)CC (stereo partly drawn) have EC50 strictly under 7 µM?
YES

Does CC(=O)O[C@@H]1[C@H](OC(C)=O)[C@@H](COP2(=O)OCc3cccc(C)c3O2)O[C@H]1n1ccnc(C(N)=O)c1=O (stereo partly drawn) have EC50 strictly under 7 µM?
NO

Does `NC(=O)c1nc(F)cnc1O` have EC50 strictly under 7 µM?
NO

Does `CCCCCCCCCC(=O)Oc1ccc(COP(=O)(OCc2ccc(OC(=O)CCCCCCCCC)cc2)OP(=O)(O)OP(=O)(O)OC[C@H]2O[C@@H](n3ccnc(C(N)=O)c3=O)[C@H](O)[C@@H]2O)cc1.CCN(CC)CC.CCN(CC)CC` have EC50 strictly under 7 µM?
YES

Does NC(=O)c1ncn([C@@H]2O[C@H](CO)[C@@H](O)[C@H]2O)n1 [RIBAVIRIN] have EC50 strictly under 7 µM?
YES

Does `NC(=O)c1nccnc1O` have EC50 strictly under 7 µM?
NO

Does CCCCCCCCCCCCCCC(=O)Oc1ccc(COP(=O)(OCc2ccc(OC(=O)CCCC)cc2)OP(=O)(O)OC[C@H]2O[C@@H](n3cc(F)nc(C(N)=O)c3=O)[C@H](O)[C@@H]2O)cc1.CCN(CC)CC (stereo partly drawn) have EC50 strictly under 7 µM?
YES
